# experimental_system: human PAI-1 (Homo sapiens, UniProt P05121)
# Sequence (P05121 24-402): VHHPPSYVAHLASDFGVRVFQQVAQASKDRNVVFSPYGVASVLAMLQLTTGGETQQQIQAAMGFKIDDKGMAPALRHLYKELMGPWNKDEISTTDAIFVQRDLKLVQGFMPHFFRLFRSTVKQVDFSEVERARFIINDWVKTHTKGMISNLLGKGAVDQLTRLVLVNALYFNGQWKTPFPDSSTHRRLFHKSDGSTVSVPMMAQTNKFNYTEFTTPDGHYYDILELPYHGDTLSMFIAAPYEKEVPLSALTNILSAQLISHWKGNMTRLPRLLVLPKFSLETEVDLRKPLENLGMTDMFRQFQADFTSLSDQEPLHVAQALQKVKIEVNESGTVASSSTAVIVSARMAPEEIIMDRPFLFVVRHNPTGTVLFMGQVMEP
# test_protocol: Measurement of PAI-1 inhibitory activity of compound group 3 (t-PA, S-2288 chromogenic substrate; Table 4)
# reported_conditions: compound concentration 20 μM
Record 1 whenever PAI-1 activity % is at 60% or higher; record -1 when lower.

* O=C(Nc1ccc(Cl)cc1C(=O)[O-])c1ccc(-c2cccc3cccnc23)cc1.[Na+] | -1
* O=C(Nc1ccc(Cl)cc1C(=O)[O-])c1cccc(-c2ccncc2)c1.[Na+] | 1
* O=C(Nc1ccc(Cl)cc1C(=O)[O-])c1cccc(-c2cccc3cccnc23)c1.[Na+] | -1
* O=C(Nc1ccc(Cl)cc1C(=O)[O-])c1cccc(-c2cnc3ccccc3c2)c1.[Na+] | 1
